test-system: LEDGF/p75 (Homo sapiens, UniProt O75475)
Sequence (O75475 whole entry): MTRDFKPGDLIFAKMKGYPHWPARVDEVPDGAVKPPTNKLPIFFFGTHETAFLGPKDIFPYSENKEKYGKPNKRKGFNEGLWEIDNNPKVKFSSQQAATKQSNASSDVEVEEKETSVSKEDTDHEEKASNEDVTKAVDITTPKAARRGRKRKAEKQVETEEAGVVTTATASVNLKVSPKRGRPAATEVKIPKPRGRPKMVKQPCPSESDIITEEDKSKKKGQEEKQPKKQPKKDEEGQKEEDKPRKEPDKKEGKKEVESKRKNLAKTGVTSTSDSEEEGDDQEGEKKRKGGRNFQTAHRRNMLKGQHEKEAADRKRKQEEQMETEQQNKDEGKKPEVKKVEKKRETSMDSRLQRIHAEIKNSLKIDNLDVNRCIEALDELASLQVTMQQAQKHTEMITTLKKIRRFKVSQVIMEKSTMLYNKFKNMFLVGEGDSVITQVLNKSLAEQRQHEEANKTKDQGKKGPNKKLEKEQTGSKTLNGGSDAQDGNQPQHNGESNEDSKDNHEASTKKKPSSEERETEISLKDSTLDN
method: Biolayer interferometry (BLI) binding to LEDGF/p75
condition-parameters: ForteBIO Octet, 1:1 Langmuir global fit, read-out: dissociation constant Kd
result-type: pKd
Answer as the number alone; pKd is minus log10 of concentration in mol/L.

Answer with the recorded pKd of `Cc1c(OCC(F)(F)F)ccnc1C[S@@+]([O-])c1nc2ccccc2[nH]1` only.
6.48
